# Tested on: KRAS-mutant PDC multicell tumor spheroid viability;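 note: viability read after seven days of drug exposure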
# EXPERIMENT DESCRIPTION: Anticancer human tumor 521955-158-R2-J5-PDC patient-derived pancreatic carcinoma cell line growth inhibition [KRAS2]
# RUN PARAMETERS: second compound 1 µM; first compound 0.0316 µM; stronger effect = lower value
For each entry below, report its viability, T/C value.

viability, T/C in this record for CC(C)NCC(C(=O)N1CCN(c2ncnc3c2C(C)CC3O)CC1)c1ccc(Cl)cc1 (stereo not given) + C=CC(=O)N1CCN(c2nc(=O)n(-c3c(C)ccnc3C(C)C)c3nc(-c4c(O)cccc4F)c(F)cc23)C(C)C1 : 106%

viability, T/C in this record for CC(C)NCC(C(=O)N1CCN(c2ncnc3c2C(C)CC3O)CC1)c1ccc(Cl)cc1 (stereo not given) + COc1cc2nc(C)nc(NC(C)c3cc(N)cc(C(F)(F)F)c3)c2cc1OC1CCOC1 : 81.3%

viability, T/C in this record for CC(=O)Nc1cccc(-n2c(=O)n(C3CC3)c(=O)c3c(Nc4ccc(I)cc4F)n(C)c(=O)c(C)c32)c1 + C=CC(=O)N1CCN(c2nc(=O)n(-c3c(C)ccnc3C(C)C)c3nc(-c4c(O)cccc4F)c(F)cc23)C(C)C1 : 24.5%

viability, T/C in this record for Cn1nccc1Nc1nccc(-c2cc3c(s2)C(C)(C)N(CCN2CCOCC2)C3=O)n1 + C=CC(=O)N1CCN(c2nc(=O)n(-c3c(C)ccnc3C(C)C)c3nc(-c4c(O)cccc4F)c(F)cc23)C(C)C1 : 117%

viability, T/C in this record for CC(C)NCC(C(=O)N1CCN(c2ncnc3c2C(C)CC3O)CC1)c1ccc(Cl)cc1 (stereo not given) + C=CC(=O)N1CCN(c2nc(OCC3CCCN3C)nc3c2CCN(c2cccc4cccc(C)c24)C3)CC1CC#N : 81.6%
